- Test system: HCC827
- METHOD SUMMARY: Cell proliferation assay and IC50 measurement (PrestoBlue)
- Type: cell-based
- CONDITIONS USED: Homo sapiens, PrestoBlue cell viability
RESULT TYPE: pIC50
Please note pIC50 is a logarithmic value: minus log10 of concentration in mol/L. Answer with that number alone.

Record summary for `Clc1ccc(CNc2nc(NC3CCCC3)nc3ccccc23)cc1Cl` : reported pIC50 = 5.28

----------
- System: DAOY
- METHOD SUMMARY: Cell proliferation assay and IC50 measurement (PrestoBlue)
- Type: cell-based
- CONDITIONS USED: Homo sapiens, PrestoBlue cell viability
RESULT TYPE: pIC50
Please note pIC50 is a logarithmic value: minus log10 of concentration in mol/L. Answer with that number alone.

Record summary for `Clc1ccc(CNc2nc(NC3CCCC3)nc3ccccc23)cc1Cl` : reported pIC50 = 5.38

Data provenance: patent US20250375450A1
